# AC50 per entry for Cytochrome P450 3A4 (Homo sapiens, UniProt P08684)

[
  {
    "smiles input": "CC(C)(C)c1ccc(-c2c(C#N)c(N)nc3c2CCCC3)s1",
    "AC50": "inconclusive"
  },
  {
    "smiles input": "CN1CCN(c2ncc3nc(-c4ccc(Cl)cc4)c(=O)n(Cc4ccc(F)cc4)c3n2)CC1",
    "AC50": "inconclusive"
  },
  {
    "smiles input": "CCS(=O)(=O)N(C)[C@@H]1c2cc(C#N)ccc2OC(C)(C)[C@H]1O",
    "AC50": "15.8 µM (inconclusive)"
  },
  {
    "smiles input": "O=C(c1cnc(-c2ccccc2)s1)c1ccc(Cl)cc1Cl",
    "AC50": "inconclusive"
  },
  {
    "smiles input": "O=C(Nc1ccccc1)N1CCC2(CC1)CCN(C(=O)Oc1ccccc1)CC2",
    "AC50": "inconclusive"
  }
]
